Assignment: determine reported gcPBM binding intensity (ln) for the given sequences.
- System: PfAP2-HC AP2 domain (GST-tagged)
- testDescription: gcPBM binding intensity (ln(normalized median fluorescence intensity)); higher = stronger DNA binding
Over roughly 25,000 sequences, “ln(normalized median fluorescence intensity)” has its median near 9.7; the highest 2% begin near 11. This is one part of a sample in which the highest values are shown more often than they occur.
The reply should be a number, written without any unit.

### Prompt Complete the entry with gcPBM binding intensity (ln) for TTACTCAAACAAACAAAAAAAAAAAAAAAAAAAAAA [TGCATGCA_negctrl_site457]
### Response 8.89

### Prompt Complete the entry with gcPBM binding intensity (ln) for CTAAGAAAAAATAAAGCACACAAATATTTTAAAAAC [CACACA_site9094]
### Response 9.93

### Prompt Complete the entry with gcPBM binding intensity (ln) for AATAAAATAATAAAAGCACACAAGAATACACCCAAA [CACACA_site7919]
### Response 10.6

### Prompt Complete the entry with gcPBM binding intensity (ln) for TGATAATAAGCATACACACACACACTAGAAAAAAAA [CACACA_site4558]
### Response 11.5

### Prompt Complete the entry with gcPBM binding intensity (ln) for TGATAATAAGCATACACACACACACTAAAAAAAAAA [CACACA_site6478]
### Response 10.9

### Prompt Complete the entry with gcPBM binding intensity (ln) for TTTTTAAATATAAACAAAAAAAAAAAATATATCAAT [XGTACX_negctrl_site328]
### Response 9.43

### Prompt Complete the entry with gcPBM binding intensity (ln) for TAAGTATACGCATACACACACACACCCAAAAAAAAA [CACACA_site425]
### Response 10.4

### Prompt Complete the entry with gcPBM binding intensity (ln) for TGATAATAAGCATACACACACACACCCAAAAAAAAA [CACACA_site721]
### Response 11.2

### Prompt Complete the entry with gcPBM binding intensity (ln) for AAGTAAAATAAGTATACACACATAAATATATATATA [CACACA_site685]
### Response 10.1

###

- Test system: PfAP2-HC AP2 domain (GST-tagged)
- testDescription: gcPBM binding intensity (ln(normalized median fluorescence intensity)); higher = stronger DNA binding
Whole data set: some 25,000 sequences, median “ln(normalized median fluorescence intensity)” near 9.7, cut for the highest 2% near 11. The list comes from a sample in which the highest values are over-represented; it also holds close analogues and randomly drawn sequences.
Assignment: determine reported gcPBM binding intensity (ln) for the given sequences.
The reply should be a number, written without any unit.

### Prompt Complete the entry with gcPBM binding intensity (ln) for AAACCGTGGGAGCACACACACACACGCGCACATATA [CACACA_site6288]
### Response 10.5

### Prompt Complete the entry with gcPBM binding intensity (ln) for AAACCGTGGGAGCACACACACACACCGACACATATA [CACACA_site4338]
### Response 10.4

### Prompt Complete the entry with gcPBM binding intensity (ln) for TACATATTTATATACACACACACACGGATATTTATA [CACACA_site7239]
### Response 11

### Prompt Complete the entry with gcPBM binding intensity (ln) for ACCGTGGGAGGACACACACACACACGCACATATATA [CACACA_site6289]
### Response 11.1

### Prompt Complete the entry with gcPBM binding intensity (ln) for TATTTATATTTATATACACACATACATATTTATATT [CACACA_site6535]
### Response 9.93
